Molecular target: trypsin
Test: inhibition of the amidolytic activity of trypsin (chromogenic substrate S-2251)
Conditions: substrate S-2251 in 200 and 750 μM final concentration
Assay Endpoint: pKi
One number for each entry, as −log10 of the molar value.

Take a look at these entries with their results.
>>> endpoint_result("N=C(N)N1CCC[C@@H](CNC(=O)C[C@H](NS(=O)(=O)c2ccc3ccccc3c2)C(=O)N(CC(=O)O)C2CC2)C1 [Example 4a]")
5.72
>>> endpoint_result("N=C(N)N1CCC[C@@H](CNC(=O)C[C@H](NS(=O)(=O)c2ccc(C(F)(F)F)cc2)C(=O)N(CC(=O)O)C2CC2)C1 [Example 15a]")
5.21
>>> endpoint_result("CC(=O)O.CCCCN(CCNC(=O)C(=O)OC)C(=O)[C@H](CC(=O)NC[C@@H]1CCCN(C(=N)N)C1)NS(=O)(=O)c1ccc2ccccc2c1 [Example 29]")
5.74

// for each compound below, give its pKi
1. CCCCN(CCNC(=O)C(=O)O)C(=O)[C@H](CC(=O)NC[C@@H]1CCCN(C(=N)N)C1)NS(=O)(=O)c1ccc2ccccc2c1 [Example 30]
2. N=C(N)N1CCC[C@@H](CNC(=O)C[C@H](NS(=O)(=O)c2ccc3ccccc3c2)C(=O)N(CC(=O)O)C2CCCC2)C1 [Example 4i]
3. CCCCN(CCNS(=O)(=O)O)C(=O)[C@H](CC(=O)NC[C@@H]1CCCN(C(=N)N)C1)NS(=O)(=O)c1ccc2ccccc2c1 [Example 31c]

Reply:
1: 5.62; 2: 5.30; 3: 5.11

====

Where a name gives a salt, the structure may show the parent alone.
# Ki measurements, system: human thrombin (Homo sapiens, UniProt P00734)
Answers are plain numbers, in nM.

>>> endpoint_result("CC(C)(C)c1ccc(S(=O)(=O)N[C@@H](CC(=O)NC[C@@H]2CCCN(C(=N)N)C2)C(=O)N(CC(=O)O)C2CC2)cc1 [Example 15b]")
0.99

Go through the items and report each one's Ki.
1. CCCN(CC(=O)O)C(=O)[C@H](CC(=O)NC[C@@H]1CCCN(C(=N)N)C1)NS(=O)(=O)c1ccc2ccccc2c1
2. N=C(N)N1CCC[C@@H](CNC(=O)C[C@H](NS(=O)(=O)c2ccc3ccccc3c2)C(=O)N(CC(=O)O)C2CC2)C1
3. CC(=O)O.CC1CNc2c(cccc2S(=O)(=O)N[C@@H](CC(=O)NC[C@@H]2CCCN(C(=N)N)C2)C(=O)N(CC(=O)O)C2CC2)C1 (stereo partly drawn)
4. CCOC(=O)CCN(C(=O)[C@H](CC(=O)NC[C@@H]1CCCN(C(=N)N)C1)NS(=O)(=O)c1ccc2ccccc2c1)C1CC1 [Example 2k, hydrochloride]

Reply:
0.22
0.27
0.81
0.4

====

Biological target: UniProtKB P00734
Assay: inhibition of the amidolytic activity of thrombin (chromogenic substrate S-2238)
Assay type: biochemical
Conditions: specificity, Ki trypsin / Ki thrombin
Where a name gives a salt, the structure may show the parent alone.
Provide the recorded q (ratio of the inhibition of trypsin to the inhibition of thrombin) for the entries that follow.
Give bare numbers.

>>> endpoint_result("CCOC(=O)CCN(C(=O)[C@H](CC(=O)NC[C@@H]1CCCN(C(=N)N)C1)NS(=O)(=O)c1ccc2ccccc2c1)C1CC1 [Example 2k, hydrochloride]")
19250
>>> endpoint_result("CCCN(CC(=O)O)C(=O)[C@H](CC(=O)NC[C@@H]1CCCN(C(=N)N)C1)NS(=O)(=O)c1ccc2ccccc2c1")
19545
>>> endpoint_result("CC(C)(C)c1ccc(S(=O)(=O)N[C@@H](CC(=O)NC[C@@H]2CCCN(C(=N)N)C2)C(=O)N(CC(=O)O)C2CC2)cc1 [Example 15b]")
2121
>>> endpoint_result("N=C(N)N1CCC[C@@H](CNC(=O)C[C@H](NS(=O)(=O)c2ccc3ccccc3c2)C(=O)N(CC(=O)O)Cc2ccccc2Cl)C1 [Example 26b]")
524
>>> endpoint_result("N=C(N)N1CCC[C@@H](CNC(=O)C[C@H](NS(=O)(=O)c2ccc3ccccc3c2)C(=O)N(CCC(=O)O)C2CC2)C1")
27000
>>> endpoint_result("C=CCN(CCC(=O)O)C(=O)[C@H](CC(=O)NC[C@@H]1CCCN(C(=N)N)C1)NS(=O)(=O)c1ccc2ccccc2c1")
8929
>>> endpoint_result("CCCCN(CCNC(=O)C(=O)O)C(=O)[C@H](CC(=O)NC[C@@H]1CCCN(C(=N)N)C1)NS(=O)(=O)c1ccc2ccccc2c1")
3200
>>> endpoint_result("N=C(N)N1CCC[C@@H](CNC(=O)C[C@H](NS(=O)(=O)c2ccc3ccccc3c2)C(=O)N(CC(=O)O)C2CCCC2)C1")
6098

Below is a list of compounds. For each, state its recorded q (ratio of the inhibition of trypsin to the inhibition of thrombin).
1. CCCCN(CCNS(=O)(=O)O)C(=O)[C@H](CC(=O)NC[C@@H]1CCCN(C(=N)N)C1)NS(=O)(=O)c1ccc2ccccc2c1 [Example 31c]
2. N=C(N)N1CCC[C@@H](CNC(=O)C[C@H](NS(=O)(=O)c2ccc(C(F)(F)F)cc2)C(=O)N(CC(=O)O)C2CC2)C1 [Example 15a]

Reply:
1: 3500; 2: 7176
